Target: T1, Human CD19-his protein (human, UniProt P15391 20-291)
T1 construct: bought protein; also called recombinant human CD19-His; CD19 full-length protein; not shown: His tag
T1 sequence (looked up): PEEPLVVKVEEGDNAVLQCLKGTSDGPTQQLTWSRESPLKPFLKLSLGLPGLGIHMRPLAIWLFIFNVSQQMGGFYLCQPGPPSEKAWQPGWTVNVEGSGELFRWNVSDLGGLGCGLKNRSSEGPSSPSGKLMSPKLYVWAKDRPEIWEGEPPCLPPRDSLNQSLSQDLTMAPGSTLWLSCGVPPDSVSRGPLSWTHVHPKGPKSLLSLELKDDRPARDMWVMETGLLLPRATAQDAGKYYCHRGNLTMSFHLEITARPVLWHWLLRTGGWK
Assay: SPR Biacore, Ab captured on Protein A, CD19-His analyte
OBSERVED PROPERTY: koff (s⁻¹)
# output: bare number, implied unit s⁻¹

A selection of reference data follows.
F4.49.11 (antibody, human IgG1, V domains shown, human-murine chimeric antibody, human IgG1 constant) VH: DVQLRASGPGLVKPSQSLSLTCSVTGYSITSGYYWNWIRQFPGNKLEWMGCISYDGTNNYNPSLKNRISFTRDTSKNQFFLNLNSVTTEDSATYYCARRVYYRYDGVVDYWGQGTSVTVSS VL: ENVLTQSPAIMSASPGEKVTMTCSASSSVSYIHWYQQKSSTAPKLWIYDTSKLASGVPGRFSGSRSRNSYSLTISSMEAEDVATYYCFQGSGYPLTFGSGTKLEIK: 0.00128
F4.191.1 (antibody, human IgG1, V domains shown, human-murine chimeric antibody, human IgG1 constant) VH: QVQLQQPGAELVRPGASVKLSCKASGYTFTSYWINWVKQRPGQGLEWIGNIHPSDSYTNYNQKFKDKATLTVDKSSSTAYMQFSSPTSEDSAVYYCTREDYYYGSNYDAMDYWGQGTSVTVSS VL: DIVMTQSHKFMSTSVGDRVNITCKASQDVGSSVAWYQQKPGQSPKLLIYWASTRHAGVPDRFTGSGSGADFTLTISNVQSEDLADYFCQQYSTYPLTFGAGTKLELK: 0.000388

Query binder follows.
Kindly note the recorded koff for F3.40.14 (antibody, human IgG1, V domains shown, human-murine chimeric antibody, human IgG1 constant) VH: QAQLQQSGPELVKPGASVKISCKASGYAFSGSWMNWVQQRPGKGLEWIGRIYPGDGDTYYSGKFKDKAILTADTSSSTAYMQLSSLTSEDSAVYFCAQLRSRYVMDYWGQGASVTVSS VL: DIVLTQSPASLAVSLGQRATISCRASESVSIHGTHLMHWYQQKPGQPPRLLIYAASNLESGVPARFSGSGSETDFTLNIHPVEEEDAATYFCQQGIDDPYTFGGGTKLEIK , which is 0.000143

Data provenance is patent US20250042994A1.
